Ref: paper PMC4002121

# target_system: PRDM9 (Homo sapiens, UniProt Q9NQV7)
# Construct: The wild-type PRDM9 gene (amino acids 195–385) was amplified by PCR; His tag (cleaved yes)
# Sequence (Q9NQV7 195-385): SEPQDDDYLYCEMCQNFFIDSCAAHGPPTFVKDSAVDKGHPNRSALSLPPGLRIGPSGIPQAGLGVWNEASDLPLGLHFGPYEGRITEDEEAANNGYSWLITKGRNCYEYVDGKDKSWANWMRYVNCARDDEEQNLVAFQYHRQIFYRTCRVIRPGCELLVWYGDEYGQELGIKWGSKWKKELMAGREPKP
# protocol: Isothermal titration calorimetry (ITC) binding to PRDM9
# experimental_parameters: AdoMet 1 mM injected into 50 μM PRDM9, 25 °C, 20 mM Tris-HCl pH 8.5, one-binding site model
result_type: pKd
In simple prose, pKd is minus the logarithm base ten of a concentration in moles per litre.

Query string: Looking for the measured pKd of C[S+](CC[C@H](N)C(=O)[O-])C[C@H]1O[C@@H](n2cnc3c(N)ncnc32)[C@H](O)[C@@H]1O (stereo partly shown) , can you help?
Result string: 4.73
